system: M14 melanoma; experiment: NCI-60 one-dose screen, 48 h (100 = growth as untreated, 0 = no growth, -100 = all killed); conditions: 10 µM unless noted
About 83,000 compounds went through this panel and 20% of them were active in at least one assay; those are over-represented in the sample as a whole.
Think of 90% as a floor: if growth stands on it or above, it is criterion met; beneath it, criterion not met.

>>> print(df.to_string())
                                   molecule   measured_on        group_label
0        CCN(CC)c1ccc(/C=C2/NC(=O)NC2=O)cc1  M14 melanoma  criterion not met
1                 Clc1ccc(-c2cnc3nonc3n2)s1  M14 melanoma  criterion not met
2     O=C(O)CSc1ccc(NCc2oc(CO)cc(=O)c2O)cc1  M14 melanoma  criterion not met
3  CN1CCC2(CC1)N=C(SCC(=O)Nc1cnc3ccccc3c1)C(c1ccc(Br)cc1)=N2  M14 melanoma  criterion not met

Exercise: Could you verify whether the entry `FC(F)(F)c1cc(-c2nnc3n2N=C(Cl)CS3)cc(C(F)(F)F)c1` shows growth of no less than 90%?
Solution: criterion not met

Exercise: Could you verify whether the entry `COc1ccc(/C=C/C(=O)CCC(=O)O)cc1OC` shows growth of no less than 90%?
Solution: criterion met

Exercise: Could you verify whether the entry `COc1ccc(-c2nc3c(c(-c4ccc(Cl)cc4)nn3-c3ccccc3)c(-c3ccc(O)cc3)c2C#N)cc1` shows growth of no less than 90%?
Solution: criterion not met

Exercise: Could you verify whether the entry `CCCCCCCCCCCCNC(=O)N[C@H](C(=O)N[C@H]1/C=C/OCCNC(=O)/C=C/[C@H](C(C)C)NC1=O)C(C)C` shows growth of no less than 90%?
Solution: criterion not met

Exercise: Could you verify whether the entry `COc1cc(OC)cc(-c2ccc(-c3ccc(C(=N)N)s3)s2)c1` shows growth of no less than 90%?
Solution: criterion not met

---

Quick reference: growth of the listed items.
tested on: SNB-75 CNS; experiment: NCI-60 one-dose screen, 48 h (100 = growth as untreated, 0 = no growth, -100 = all killed); settings: 10 µM unless noted
Compounds without any hit were thinned out: in the full panel of roughly 83,000, 20% have a hit.
Give the number; % is assumed, so skip it.

>>> print(df.to_string())
                                   molecule  measured_on  recorded_result
0            C[Si](C)(C)C(c1ccccc1)c1ccccc1   SNB-75 CNS              102
1  CS(=O)(=O)c1ccc(C(=O)N/N=C/c2ccccc2Cl)cc1   SNB-75 CNS             84.9
2      O=S(=O)(Cc1ccc(Cl)cc1Cl)c1ccc(Cl)cc1   SNB-75 CNS             18.8
3  COc1ccc(C(=O)C(CN(C)C)c2ccc(OC)cc2)cc1 (stereo not drawn)   SNB-75 CNS             64.7
4  CC(C)OC1OC(OC(C)C)C(OC(C)C)OC1OC(C)C (stereo not drawn)   SNB-75 CNS               99
5  CC1=CC(=O)OC1C/C=C(\C)CCC1[C@@]2(C)CCC[C@@](C)(C(=O)O)C2CC[C@@]1(C)O (stereo partly drawn)   SNB-75 CNS               74

Exercise: Request: growth, test system SNB-75 CNS, entry `O/N=C/c1ccncc1`
Solution: 96.2

Exercise: Request: growth, test system SNB-75 CNS, entry CCN(CC)CCCC(C)Nc1ccnc2ccc(Oc3ccccc3)cc12 (stereo not drawn)
Solution: 73.2

The reported numbers originate from PubChem BioAssay (NCI).
